System: mtOXPHOS transcripts
Format: cell-based, mouse
condition.info: composite Z-score vs mock-treated (DMSO) wells; Conc 20 μM
measurement.kind: mitoOX

CCOC(=O)c1c(C)cc(O)c(C=O)c1O; 0.537
CC1(C)C2CC(=O)O[C@@]3(C)C4=CC(=O)O[C@@H](c5ccoc5)[C@]4(C)CCC3[C@@]2(C)C=C[C@H]1O (stereo partly drawn); −1.179
Cc1cc(O)cc(O)c1C(=O)O; −0.333
CC(=O)O[C@H]1C[C@@H](OC(C)=O)C(C)(C)C2CC(=O)[C@]3(C)C(CC[C@@]4(C)[C@H](c5ccoc5)OC(=O)[C@H]5O[C@]543)[C@]21C (stereo partly drawn); 0.738
C=C1[C@@H]2CC[C@@]3(C)[C@H](c4ccoc4)OC(=O)C[C@]13O[C@H]1CC(=O)C(C)(C)[C@H](CC(=O)OC)[C@]12C; 0.813

Please examine the following record next.
Request: mitoOX, test system mtOXPHOS transcripts, entry C=C1C2CC[C@@]3(C)[C@H](c4ccoc4)OC(=O)C[C@]13O[C@H]1CC(=O)C(C)(C)[C@H](C(O)C(=O)OC)[C@@]21C (stereo partly drawn) [6-hydroxyangolensic acid methyl ester]
−1.206
